B1: KRT15 (parent)
chain: FGGGSTRGGSLLAGGGGFGGGSLS

- Variants of: B1
- TEST_DESCRIPTION: protein stability index of a GFP-peptide fusion (GPS, HEK-293T) (PSI 1-6); higher = more stable;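 further: lentivirally expressed fusions sorted by FACS into six bins by GFP to DsRed ratio, PSI derived from sequencing read proportions per bin multiplied by bin number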
- CONDITIONS_USED: c terminus: a fixed tail appended
Rule: protein stability index under 2 gives not met, otherwise met.

Use these answered entries as a reference point.
VARIANT_LABEL | ASSIGNED_CATEGORY
G4P | met
G3F | not met
S22Q | not met
G8R | met
G4M | not met

Decide: is the reported value of protein stability index for L12I equal to or greater than 2?
met

Decide: is the reported value of protein stability index for G16R equal to or greater than 2?
not met

Decide: is the reported value of protein stability index for S24D equal to or greater than 2?
not met

Decide: is the reported value of protein stability index for G16K equal to or greater than 2?
met

Decide: is the reported value of protein stability index for G3M equal to or greater than 2?
met
